System: 997537-175-T-J1-PDC complex spheroid viability
ASSAY_PROTOCOL: Anticancer human tumor 997537-175-T-J1-PDC patient-derived colon adenocarcinoma cell line growth inhibition [GQUAD]
SETUP_CONDITIONS: second compound 1 µM; first compound 1 µM; hits give low values
ENDPOINT_LABEL: viability, T/C (%)

{"COMPOUND": "COc1ncnc(C2CC2)c1-c1ncc2cnn(Cc3ccc(-c4nc(C(F)(F)F)cn4C(C)C)cc3)c2n1 + CN(C)c1ccc(Nc2c3ccc(NC(=O)CCN4CCCC4)cc3nc3cc(NC(=O)CCN4CCCC4)ccc23)cc1", "ASSAY_VALUE": 79}
{"COMPOUND": "O=c1[nH]cc(F)c(=O)[nH]1 + CN(C)c1ccc(Nc2c3ccc(NC(=O)CCN4CCCC4)cc3nc3cc(NC(=O)CCN4CCCC4)ccc23)cc1", "ASSAY_VALUE": 79.3}
{"COMPOUND": "C=CCn1c(=O)c2cnc(Nc3ccc(N4CCN(C)CC4)cc3)nc2n1-c1cccc(C(C)(C)O)n1 + Cc1[nH]c2ccc(F)cc2c1-c1nc2c3cccnc3c3ncccc3c2[nH]1", "ASSAY_VALUE": 78.3}

====

System: 997537-175-T-J1-PDC complex spheroid viability
ASSAY_PROTOCOL: Anticancer human tumor 997537-175-T-J1-PDC cell line growth inhibition [GQUAD];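 also: spheroids exposed to the agents for 7 days; 100% = DMSO vehicle control viability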
SETUP_CONDITIONS: second compound 0.0316 µM; first compound 0.00999 µM; hits give low values
Readings of viability, T/C for the listed molecules
ENDPOINT_LABEL: viability, T/C (%)

{"MOLECULE": "Cc1[nH]c2ccccc2c1CCNCc1ccc(/C=C/C(=O)NO)cc1 + Cc1cnc(CNC(=O)c2c(=O)c3ccc(N4CCCN(C)CC4)nc3n3c2sc2ccccc23)cn1", "UNIT_SPEC": "%", "ASSAY_VALUE": 98}
{"MOLECULE": "Cn1ncnc1[C@H]1c2n[nH]c(=O)c3cc(F)cc(c23)N[C@@H]1c1ccc(F)cc1 + Cc1[nH]c2ccc(F)cc2c1-c1nc2c3cccnc3c3ncccc3c2[nH]1", "UNIT_SPEC": "%", "ASSAY_VALUE": 104}
{"MOLECULE": "CC[C@@]1(O)C(=O)OCc2c1cc1n(c2=O)Cc2cc3c(CN(C)C)c(O)ccc3nc2-1 + Cc1[nH]c2ccc(F)cc2c1-c1nc2c3cccnc3c3ncccc3c2[nH]1", "UNIT_SPEC": "%", "ASSAY_VALUE": 99.2}
{"MOLECULE": "Cn1ncnc1[C@H]1c2n[nH]c(=O)c3cc(F)cc(c23)N[C@@H]1c1ccc(F)cc1 + Cc1cnc(CNC(=O)c2c(=O)c3ccc(N4CCCN(C)CC4)nc3n3c2sc2ccccc23)cn1", "UNIT_SPEC": "%", "ASSAY_VALUE": 90.8}
{"MOLECULE": "CC[C@@]1(O)C(=O)OCc2c1cc1n(c2=O)Cc2cc3c(CN(C)C)c(O)ccc3nc2-1 + Cc1cnc(CNC(=O)c2c(=O)c3ccc(N4CCCN(C)CC4)nc3n3c2sc2ccccc23)cn1", "UNIT_SPEC": "%", "ASSAY_VALUE": 97.8}
{"MOLECULE": "CCc1c2c(nc3ccc(O)cc13)-c1cc3c(c(=O)n1C2)COC(=O)[C@]3(O)CC + Cc1[nH]c2ccc(F)cc2c1-c1nc2c3cccnc3c3ncccc3c2[nH]1", "UNIT_SPEC": "%", "ASSAY_VALUE": 54.2}
